Hey, just so you know, these numbers are from PubChem BioAssay (NCI).

System: NCI-H226 lung
TEST NAME: NCI-60 one-dose screen, 48 h
REPORTED CONDITIONS: 10 µM unless noted
The panel holds about 83,000 compounds, 20% with a hit somewhere; the sample as a whole holds those more often. Active and inactive are the calls of the source. How the source made its calls: active means growth percent below 10; inactive means the rest.
Labels: 1 (yes) = active, 0 (no) = inactive

COMPOUND: CCN1c2ccccc2C(Cl)(c2ccc(N(C)C)cc2)c2ccccc21
CAT: 0 (no)
//
COMPOUND: O=C(CCN1CCCCC1)c1ccc(Cl)cc1
CAT: 0 (no)
//
COMPOUND: CCOC(=O)c1nc2c3ccccc3ccn2c1C(=O)OC
CAT: 0 (no)
//
COMPOUND: Cc1cnc(N)nc1OCCNC(=O)c1cccc(-c2ccc(S(=O)(=O)Nc3ccc4c(c3)N(C(=O)C3CC3)CCC4)cc2)c1
CAT: 0 (no)
//
COMPOUND: CCN(CCO)CCC(=O)c1ccc([N+](=O)[O-])cc1
CAT: 0 (no)
//
COMPOUND: CCOC(=O)COc1c(C)cc(SSc2cc(C)c(OCC(=O)OCC)c(C)c2)cc1C
CAT: 0 (no)
//
COMPOUND: CCN=Cc1c(O)c(O)c(C(C)C)c2cc(C)c(-c3c(C)cc4c(C(C)C)c(O)c(O)c(C=NCC)c4c3O)c(O)c12
CAT: 0 (no)
//
COMPOUND: COc1cc2c(cc1OC(C)=O)C(=O)CCCC2
CAT: 0 (no)
//
COMPOUND: Cc1cccc(C[C@H](NC(=O)Nc2ccc(Cl)cc2F)C(=O)N[C@@H]2C(=O)N3C[C@H](O)C[C@H]3C(=O)N3CCN(C)C[C@H]3C(=O)N[C@@H](C)C(=O)N3C[C@H](C)C[C@H]3C(=O)O[C@H]2C)c1
CAT: 0 (no)
//
COMPOUND: CC1Cc2c(Cl)ncnc2N(C)c2ccc(Cl)cc21 (stereo unspecified)
CAT: 1 (yes)
//
COMPOUND: CCOC(=O)c1nn(C2CCCCO2)c2ccc(NC(=O)CN3CCCC3)cc12 (stereo unspecified)
CAT: 0 (no)
//
COMPOUND: COc1ccccc1S(=O)Nc1ccccc1 (stereo unspecified)
CAT: 0 (no)
//
COMPOUND: CCCCCCCCCCCCCCNC(=O)Nc1ccc(Cl)c(Cl)c1
CAT: 0 (no)
//
COMPOUND: COc1ccc(-c2ccc(NNC(=O)c3ccc(F)cc3)nn2)cc1OC
CAT: 0 (no)
//
COMPOUND: Cc1cc[n+](CCCCCCCCCC[n+]2ccc(C)cc2)cc1
CAT: 0 (no)
//
COMPOUND: O=C(Nc1cccnc1)c1ccc2ccc3ccc(C(=O)Nc4cccnc4)nc3c2n1
CAT: 1 (yes)
//
COMPOUND: Cc1ccccc1OC(=O)c1cccc(Cl)c1
CAT: 0 (no)
//
COMPOUND: O=C1NC(=O)C(Cc2ccccc2)(Cc2ccccc2)N1
CAT: 0 (no)
//
COMPOUND: CC(=O)Nc1ccc2nc3ccc(NC(C)=O)cc3[n+](-c3ccccc3)c2c1
CAT: 0 (no)
//
COMPOUND: N#Cc1c(N2CCOCC2)nc(=S)[nH]c1-c1ccco1
CAT: 0 (no)
//
COMPOUND: COc1cc(/C=C/C(=O)/C=C/c2ccc(-n3ccnc3C)cc2)ccc1O
CAT: 0 (no)
